target: Botulinum neurotoxin type A (Clostridium botulinum) (UniProt P0DPI0); test: BoNT/A light chain protease inhibitors, biochemical, multiplex microsphere flow cytometry, validation set (AID 588460); settings: at 10 µM, stronger effect = higher value
Sequence (P0DPI0 whole entry, looked up): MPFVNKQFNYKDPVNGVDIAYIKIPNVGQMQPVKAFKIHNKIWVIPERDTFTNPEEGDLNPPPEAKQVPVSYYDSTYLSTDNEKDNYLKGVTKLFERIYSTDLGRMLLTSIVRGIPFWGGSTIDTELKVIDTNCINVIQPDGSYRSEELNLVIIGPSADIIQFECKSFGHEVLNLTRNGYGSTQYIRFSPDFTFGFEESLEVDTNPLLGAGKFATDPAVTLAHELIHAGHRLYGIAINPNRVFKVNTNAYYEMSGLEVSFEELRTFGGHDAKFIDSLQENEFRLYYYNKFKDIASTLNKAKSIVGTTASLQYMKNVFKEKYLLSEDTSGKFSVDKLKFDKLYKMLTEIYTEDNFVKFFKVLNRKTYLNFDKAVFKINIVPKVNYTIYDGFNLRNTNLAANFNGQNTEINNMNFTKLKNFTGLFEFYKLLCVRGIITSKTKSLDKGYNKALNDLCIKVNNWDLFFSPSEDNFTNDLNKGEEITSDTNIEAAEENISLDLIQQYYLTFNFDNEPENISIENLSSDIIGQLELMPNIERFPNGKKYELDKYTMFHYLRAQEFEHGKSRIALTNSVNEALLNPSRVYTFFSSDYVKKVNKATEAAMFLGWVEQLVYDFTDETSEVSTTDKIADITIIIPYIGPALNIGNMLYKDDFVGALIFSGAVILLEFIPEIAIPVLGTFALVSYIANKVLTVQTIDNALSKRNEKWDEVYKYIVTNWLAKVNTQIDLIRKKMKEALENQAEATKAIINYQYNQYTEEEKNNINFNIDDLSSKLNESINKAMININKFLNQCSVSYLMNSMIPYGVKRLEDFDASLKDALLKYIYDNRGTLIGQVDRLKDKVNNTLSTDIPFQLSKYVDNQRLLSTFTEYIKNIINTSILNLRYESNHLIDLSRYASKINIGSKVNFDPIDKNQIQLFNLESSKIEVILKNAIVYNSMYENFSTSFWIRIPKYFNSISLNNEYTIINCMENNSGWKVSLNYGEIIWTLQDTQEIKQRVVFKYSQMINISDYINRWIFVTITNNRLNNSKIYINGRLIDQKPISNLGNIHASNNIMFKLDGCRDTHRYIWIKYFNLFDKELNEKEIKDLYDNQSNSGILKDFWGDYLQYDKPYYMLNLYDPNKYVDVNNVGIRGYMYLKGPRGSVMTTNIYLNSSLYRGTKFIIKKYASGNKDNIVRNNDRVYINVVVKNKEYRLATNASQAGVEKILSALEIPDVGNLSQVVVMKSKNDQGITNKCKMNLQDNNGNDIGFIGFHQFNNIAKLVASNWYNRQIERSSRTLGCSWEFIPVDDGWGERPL
endpointName: inhibition (%)
Field: numeric (%). Do not append units.

CCN(CC)CCOC(=O)C(O)(c1ccccc1)c1ccccc1	-0.9
CCOC(=O)c1cc2cc3ccccc3cc2[nH]1	-0.1
c1ccc(Cn2ccnc2)cc1	0.1

Consider the compound COc1ccc(CCN2C(=O)CSC2c2ccc(OC)c(OC)c2)cc1OC (stereo unspecified) and give its measured inhibition.
0.4

Consider the compound `Cn1cc(CN(CCO)Cc2cccs2)c(-c2cccc(Cl)c2)n1` and give its measured inhibition.
1.3

Consider the compound `COc1cc2ccc(=O)oc2c(O)c1OCC=C(C)C` and give its measured inhibition.
1.4

====

biological target: Botulinum neurotoxin type A (Clostridium botulinum) (UniProt P0DPI0); test: BoNT/A light chain protease inhibitors, biochemical, multiplex microsphere flow cytometry, validation set (AID 588460); settings: at 10 µM, stronger effect = higher value
The source made the active and inactive calls. How the calls were made is not given here.
endpointName: inhibition

C[C@]12CCC(=O)C=C1[C@H](O)C[C@@H]1[C@@H]2[C@@H](O)C[C@@]2(C)[C@H]1CC[C@]2(O)C(=O)CO	-0.3% (inactive)

Consider the compound `N=c1nc(N2CCCCC2)cc(N)n1O` and give its measured inhibition.
-0.7% (inactive)

Consider the compound O=C(O)C1Sc2[nH]c(=O)sc2C2c3ccc(O)cc3OC(=O)C12 (centres undefined) and give its measured inhibition.
-1% (inactive)

Consider the compound `O=C(NCCNc1ccc(Cl)cc1[N+](=O)[O-])c1cccnc1` and give its measured inhibition.
-1.2% (inactive)

====

assay: modulators of CIT2-GFP expression in yeast, confirmation, S. cerevisiae, GFP fusion, cherry picks, mother/daughter gates (AID 2274); conditions: S. cerevisiae CIT2-GFP strain, flow cytometry, 3 h; measured here: daughter cell gate; at 10 µM; stronger effect = higher value
Measured GFP response, % of DMSO of individual entries
Field: numeric (%). Do not append units.

Would you please look over these solved cases?
O=C1NC(=O)N(CCc2ccc(F)cc2)C(=O)/C1=C/c1ccco1	100
O=c1oc2ccccc2c(O)c1[C@H]1c2ccc(O)cc2Oc2c1c(=O)oc1ccccc21	78.5
CN1C(=O)C(=Cc2ccc(Sc3ccccc3)o2)C(=O)N(C)C1=S	117

Consider the compound `O=C1/C(=C\c2ccc(Cl)c(Cl)c2)N2CCC1CC2` and give its measured GFP response, % of DMSO.
101

Consider the compound `N#CC(C#N)=NNc1ccc(-n2ccc(C(F)(F)F)n2)cc1` and give its measured GFP response, % of DMSO.
97.6

Consider the compound `Cc1ccc(N2C(=O)NC(=O)/C(=C\c3cn(CC(=O)O)c4ccccc34)C2=O)cc1` and give its measured GFP response, % of DMSO.
94.8

Consider the compound `CC12CN3CC(C)(CN(C1)C31CCOCC1)C2=O` and give its measured GFP response, % of DMSO.
103

Consider the compound `O=C1NC(=O)N(c2ccccc2)C(=O)/C1=C/c1ccc(Sc2ccccc2)o1` and give its measured GFP response, % of DMSO.
98.3

Consider the compound `O=[N+]([O-])c1ccc(N2CCNCC2)cc1Sc1ccccn1` and give its measured GFP response, % of DMSO.
96.5

Consider the compound `N#CC(C#N)=Cc1ccc(N2CCCC2)cc1` and give its measured GFP response, % of DMSO.
106

Consider the compound `C[C@]12CCC(=O)C=C1CC[C@@H]1[C@@H]2CC[C@]2(C)C(=O)CC[C@@H]12` and give its measured GFP response, % of DMSO.
97.2

Consider the compound `C[C@]12CC[C@@H](O)C[C@@H]1CC[C@@H]1[C@@H]2CC[C@]2(C)[C@@H](O)CC[C@@H]12` and give its measured GFP response, % of DMSO.
86.2

Consider the compound `O=C1NC(=O)N(Cc2ccco2)C(=O)/C1=C\c1ccc(-c2ccc(F)cc2)o1` and give its measured GFP response, % of DMSO.
99.3

Consider the compound `C[C@]12CCC(=O)C(O)=C1CC[C@@H]1[C@@H]2CC[C@]2(C)C(=O)CC[C@@H]12` and give its measured GFP response, % of DMSO.
103

====

molecular target: Botulinum neurotoxin type A (Clostridium botulinum); assay: BoNT/A light chain protease inhibitors, biochemical, multiplex microsphere flow cytometry, validation set (AID 588460); details: at 10 µM, stronger effect = higher value
Measured inhibition of individual entries
Field: numeric (%). Do not append units.

Would you please look over these solved cases?
O=C(/C=C/c1ccccc1)NC(=O)c1ccccc1O	-1.7
CCOc1ccc2ccccc2c1C(=O)N[C@@H]1C(=O)N2[C@@H]1SC(C)(C)[C@@H]2C(=O)O	1.2
Cc1oc2cc(O)ccc2c(=O)c1Oc1ccccc1Br	-0.5
C[C@H]1CCCC(=O)CCCCCc2cc(O)cc(O)c2C(=O)O1	-1.7
COc1ccc(C(=O)c2oc3ccc(Br)cc3c2NC(C)=O)cc1	-1.1

Consider the compound `O=C(O)[C@H](Cc1ccccc1)NC(=O)N1CCC(Cc2ccccc2)CC1` and give its measured inhibition.
0.9

Consider the compound `CN(C)[C@@H]1C(=O)C(C(N)=O)=C(O)[C@@]2(O)C(=O)C3=C(O)c4c(O)cccc4[C@@](C)(O)[C@H]3[C@H](O)[C@@H]12` and give its measured inhibition.
-5.3

Consider the compound `O=[N+]([O-])c1ccc(O)c2ncccc12` and give its measured inhibition.
-3.7

Consider the compound CC(=O)CC(c1ccc([N+](=O)[O-])cc1)c1c(O)c2ccccc2oc1=O (stereo unspecified) and give its measured inhibition.
0.2

Consider the compound `O=C(NCc1ccccc1Cl)NC(=O)c1ccccc1` and give its measured inhibition.
0.8

Consider the compound CCOC(=O)C1=C(N)Oc2c(c(=O)[nH]c3ccccc23)C1c1ccccc1 (stereo unspecified) and give its measured inhibition.
1.1

Consider the compound `O=c1cccc2n1C[C@H]1C[C@@H]2CN2CCCC[C@@H]12` and give its measured inhibition.
-0.2

====

molecular target: Botulinum neurotoxin type A (Clostridium botulinum); assay: BoNT/A light chain protease inhibitors, biochemical, multiplex microsphere flow cytometry, validation set (AID 588460); details: at 10 µM, stronger effect = higher value
endpointName: inhibition (%)
Field: numeric (%). Do not append units.

Would you please look over these solved cases?
O=c1ccn([C@@H]2O[C@H](CO)[C@@H](O)[C@H]2O)c(=O)[nH]1	-0.2
COc1c(C)cc(C(=O)C2CCCN(Cc3ccc(Oc4ncccn4)cc3)C2)cc1C (stereo not given)	-1.2
CNc1nc(Nc2ccccc2)nc(OCC(F)(F)F)n1	0.2
Cc1ccc(P(=O)(CSC(=N)N)c2ccc(C)cc2)cc1	-0.5
COc1ccc(CCN2CCC(Nc3nc4ccccc4n3Cc3ccc(F)cc3)CC2)cc1	0.4
CC(CCCC(C)(C)O)NC(=O)c1ccc(OC2CCN(C(=O)C3CC3)CC2)cc1 (stereo not given)	0.7

For Botulinum neurotoxin type A (Clostridium botulinum), provide inhibition of CC(O)Cn1cnc2c1c(=O)n(C)c(=O)n2C (stereo not given) please.
-0.5

For Botulinum neurotoxin type A (Clostridium botulinum), provide inhibition of COc1cccc2c1OCC1COc3c(c(=O)n(C)c(=O)n3C)C21 (stereo not given) please.
0.5

For Botulinum neurotoxin type A (Clostridium botulinum), provide inhibition of `Cc1ccc2c(c1)C(C)(C)[C@]1(C)NC(=O)CCN21` please.
-0.2

For Botulinum neurotoxin type A (Clostridium botulinum), provide inhibition of CC(C)(C)NCC(O)c1cc(O)cc(O)c1 (stereo not given) please.
0.7

For Botulinum neurotoxin type A (Clostridium botulinum), provide inhibition of COc1c2c(nc3occc13)C(CC=C(C)C)(OC)C(O)CC2 (stereo not given) please.
0.9

For Botulinum neurotoxin type A (Clostridium botulinum), provide inhibition of Cc1ccccc1C(OCCN(C)C)c1ccccc1 (stereo not given) please.
0.7

For Botulinum neurotoxin type A (Clostridium botulinum), provide inhibition of CN(C)CCOC(=O)C(c1ccccc1)C1(O)CCCC1 (stereo not given) please.
-0.3

====

target: Botulinum neurotoxin type A (Clostridium botulinum) (UniProt P0DPI0); assay: BoNT/A light chain protease inhibitors, biochemical, multiplex microsphere flow cytometry, validation set (AID 588460); settings: at 10 µM, stronger effect = higher value
endpointName: inhibition (%)
Field: numeric (%). Do not append units.

CCCC(=O)O[C@]1(C(=O)CCl)[C@@H](C)C[C@H]2[C@@H]3CCC4=CC(=O)C=C[C@]4(C)[C@@]3(F)C(=O)C[C@@]21C	-0.6
C#C[C@]1(O)CC[C@H]2[C@@H]3CCC4=CC(=O)CC[C@]4(C)[C@H]3CC[C@@]21C	-0.5
OC(CCCN1CCC(O)(c2ccc(Cl)cc2)CC1)c1ccc(F)cc1 (configuration not stated)	1.7
O=C(Oc1ccccc1)Oc1ccc2c(c1)oc(=O)c1ccccc12	-0.4
CC(=O)c1cccc(NC(=O)N[C@@H](CC(C)C)C(=O)O)c1	-1.7
CN1C(C(=O)Nc2ccccn2)=C(O)c2ccccc2S1(=O)=O	1.5
COC(=O)c1cc(OC)c(OC)cc1NC(=O)CN1C(=O)c2ccccc2C1=O	-1
CC(C)[N+](C)(CCC(C(N)=O)(c1ccccc1)c1ccccc1)C(C)C	-2.6

For Botulinum neurotoxin type A (Clostridium botulinum) (UniProt P0DPI0), provide inhibition of COc1ccc(NC(=O)C2CSC3c4ccccc4C(=O)N23)cc1 (configuration not stated) please.
-0.2

For Botulinum neurotoxin type A (Clostridium botulinum) (UniProt P0DPI0), provide inhibition of `C[C@H]1C[C@H]2[C@@H]3CCC4=CC(=O)C=C[C@]4(C)[C@@]3(Cl)[C@@H](O)C[C@]2(C)[C@@]1(O)C(=O)CO` please.
-0.1

For Botulinum neurotoxin type A (Clostridium botulinum) (UniProt P0DPI0), provide inhibition of `CCOC(=O)/C=C1\NC(C)(C)Cc2cc(OC)c(OC)cc21` please.
-0.4

For Botulinum neurotoxin type A (Clostridium botulinum) (UniProt P0DPI0), provide inhibition of `O=C(Nc1ccc(F)c([N+](=O)[O-])c1)c1ccc2c(c1)OCCO2` please.
-2.7
